measurement.target: TYK2 JH2 pseudokinase (human)
protocol.notes: KINOMEscan competition binding
measurement.setup: compound 10.0 µM
Could you mark each record label 1 if its kinase still bound, per cent of control falls strictly under 10%, and label 0 if it equals or exceeds it?

Please review the following examples before continuing.
- structure.string: "N=C1NC(=O)/C(=C/c2ccc(-c3ccc(F)cc3)o2)S1"
  discrete.label: "label 0"
- structure.string: "CN1C(=O)[C@H]2CCC[C@H]2N(C2CCCC2)c2nc(Nc3ccc4ncccc4c3)ncc21"
  discrete.label: "label 0"
- structure.string: "N=C1NC(=O)/C(=C/c2ccc(-c3csc4ccccc34)o2)S1"
  discrete.label: "label 1"

Query string: Quick check: does O=C1NC(=O)/C(=C/c2ccc(-c3ccc(C(=O)Nc4ccc(N5CCNCC5)cc4)cc3)o2)S1 have kinase still bound, per cent of control under 10%?
Result string: label 0

Query string: In plain terms, does N=C1NC(=O)/C(=C/c2ccc(-c3cccc4cc[nH]c34)o2)S1 come in under 10% for kinase still bound, per cent of control?
Result string: label 1

meta.source: the kinase profiling compilation of Christmann-Franck et al. (2016)
